Taken from a melting point compilation (Tetko et al.).

Property name: melting point

Fill in the blank: the reported melting point of "CCn1nc(C)c(C(=O)O)c1C" is ____.
139 to 141 °C

Fill in the blank: the reported melting point of "COc1cc(C(=O)O)cc([N+](=O)[O-])c1OC" is ____.
193 to 195 °C

Fill in the blank: the reported melting point of "O=C(O)C1(C(=O)NC2CC2)CCC1" is ____.
139 to 141 °C

Fill in the blank: the reported melting point of "Nc1nnc(-c2ccc(Br)cc2)o1" is ____.
273 to 275 °C

Fill in the blank: the reported melting point of "CN1C(=O)Cc2cc(S)ccc21" is ____.
104 to 106 °C

Fill in the blank: the reported melting point of "COc1ccc(NCCCC(=O)O)cc1" is ____.
204 to 206 °C

Fill in the blank: the reported melting point of "CC(C)OC(=O)c1cccc(-c2nn[nH]n2)c1" is ____.
155 to 159 °C

Fill in the blank: the reported melting point of "CC(C)(C)NC(=O)NCCCl" is ____.
104 to 106 °C
